Cited source for all entries: paper doi:10.1101/2024.08.19.608619

# assayMethodText: Hepatic microsomal stability, HLM
# Type: in vitro ADME, human
# protocolConditions: In vitro human liver microsomal stability
For each record, check the reported perc_remaining: if it is below 30% write condition met, else write condition not met.

[[record]]
compound = "CC(C)[C@H](Nc1ncnc2[nH]ccc12)c1ccc2c(c1)NC(=O)CO2 [ASAP-0008430]"
assignedlabel = "condition not met"

[[record]]
compound = "CC(C)[C@@H](Nc1ncnc2[nH]ccc12)c1ccc2c(c1)S(=O)(=O)CCO2 [ASAP-0012318]"
assignedlabel = "condition not met"

[[record]]
compound = "CNC(=O)c1cc2c(N[C@@H](c3ccc4c(c3)OCCO4)C(C)C)ncnc2[nH]1 [ASAP-0008348]"
assignedlabel = "condition met"


Let's switch to this compound now.
Query block: Problem: For the compound CC(C)[C@H](Nc1ncnc2[nH]c(C(=O)N[C@H]3CCN(C)C3)cc12)c1ccc2c(c1)S(=O)(=O)CCC2 [ASAP-0012334] , is perc_remaining under 30%?
Result block: condition not met

* * *

# assayMethodText: in vitro
# Set-up: Cytotoxicity in iPSC-derived pneumocytes, CC50
# protocolConditions: human, ipsc-derived pneumocytes; ASAP-0008327-001=ASAP-0012336-001; read-out: 50.0
resultType: CC50

Query block: I would be grateful if you could share the reported CC50 for CC(C)[C@@H](Nc1ncnc2[nH]c(C(=O)N[C@H]3CCN(C)C3)cc12)c1ccc2c(c1)S(=O)(=O)CCC2 (single isomer, unassigned) .
Result block: > 50 µM

* * *

# assayMethodText: Protein binding
# Assay type: in vitro ADME
# protocolConditions: In vitro rat plasma protein binding
resultType: perc_recovered (%)
Give just the number in %; leave the unit off.

Worked set:
[[record]]
substancesmiles = "Cn1ncc(-c2cc3c(N[C@@H](c4ccc5c(n4)OCCO5)C(C)(C)C)ncnc3[nH]2)c1C#N"
resulttype = "perc_recovered"
unitssymbol = "%"
valuereported = 90.47

[[record]]
substancesmiles = "CC(C)[C@@H](Nc1ncnc2[nH]c(-c3cnn(C)c3C#N)cc12)c1ccc2c(n1)OCCO2"
resulttype = "perc_recovered"
unitssymbol = "%"
valuereported = 100.0

[[record]]
substancesmiles = "CC(C)[C@H](Nc1ncnc2[nH]ccc12)c1ccc2c(c1)S(=O)(=O)CCC2"
resulttype = "perc_recovered"
unitssymbol = "%"
valuereported = 91.14


Turning to the following compound.
Query block: I would be grateful if you could share the reported perc_recovered for COc1ccc([C@H](Cc2nnn[nH]2)NC(=O)c2ncnc3[nH]ccc23)cc1 .
Result block: 100.2

* * *

# assayMethodText: Permeability Papp (AB) MDR1/MDCKII
# protocolConditions: In vitro MDR1-MDCKII permeability, A to B, mean
Each entry below carries its reported papp_a_to_b_mean.
Give just the number in ×10⁻⁶ cm/s; leave the unit off.

[[record]]
compound = "CC(C)[C@@H](Nc1ncnc2[nH]c(-c3cnn(C)c3C#N)cc12)c1ccc2c(c1)OCCO2 (racemic)"
unitssymbol = "×10⁻⁶ cm/s"
valuereported = 4.2

[[record]]
compound = "CC(C)(C)[C@H](Nc1ncnc2[nH]c(-c3cnn(CC(N)=O)c3)cc12)c1ccc2c(n1)OCCO2 (racemic)"
unitssymbol = "×10⁻⁶ cm/s"
valuereported = 0.822

[[record]]
compound = "CC(C)[C@@H](Nc1ncnc2[nH]c(-c3cnn(CCC(N)=O)c3)cc12)c1ccc2c(c1)OCCO2"
unitssymbol = "×10⁻⁶ cm/s"
valuereported = 1.46

[[record]]
compound = "CC(C)[C@@H](Nc1ncnc2[nH]c(-c3cnn(C)c3C#N)cc12)c1ccc2c(n1)OCCO2"
unitssymbol = "×10⁻⁶ cm/s"
valuereported = 14.6

[[record]]
compound = "CC(C)[C@@H](Nc1ncnc2[nH]c(-c3cnn(CC(N)=O)c3)cc12)c1ccc2c(c1)OCCO2"
unitssymbol = "×10⁻⁶ cm/s"
valuereported = 0.9


Query block: I would be grateful if you could share the reported papp_a_to_b_mean for CC(C)[C@H](Nc1ncnc2[nH]c(-c3cnn(CC(N)=O)c3)cc12)c1ccc2c(c1)S(=O)(=O)CCC2 (racemic) [ASAP-0008679] .
Result block: 0.32

Query block: I would be grateful if you could share the reported papp_a_to_b_mean for CC(C)[C@@H](Nc1ncnc2[nH]c(-c3cnn(CC(N)=O)c3)cc12)c1ccc2c(c1)S(=O)(=O)CCC2 .
Result block: 0.719

Query block: I would be grateful if you could share the reported papp_a_to_b_mean for COc1ccc([C@@H](Cc2nnn[nH]2)NC(=O)c2ncnc3[nH]ccc23)cc1 .
Result block: 1.39

Query block: I would be grateful if you could share the reported papp_a_to_b_mean for COCCNC(=O)c1c[nH]c2ncnc(N[C@H](c3ccc4c(c3)S(=O)(=O)CCC4)C(C)C)c12 (racemic) .
Result block: 1.62

Query block: I would be grateful if you could share the reported papp_a_to_b_mean for CC(C)[C@H](Nc1ncnc2[nH]c(-c3cnn(CC(N)=O)c3)cc12)c1ccc2c(c1)NC(=O)CO2 (racemic) .
Result block: 1.36

* * *

# assayMethodText: Hepatic microsomal stability, HLM
# Assay type: in vitro ADME, human
# protocolConditions: In vitro human liver microsomal stability
resultType: clint (µL/min/mg)
Give just the number in µL/min/mg; leave the unit off.

Worked set:
[[record]]
compound = "CC(C)C(Nc1ncnc2[nH]ccc12)c1ccc2c(c1)NC(=O)CO2 (stereo not shown)"
resulttype = "clint"
unitssymbol = "µL/min/mg"
valuereported = 31.0

[[record]]
compound = "COc1ccc([C@H](Cc2nnn[nH]2)NC(=O)c2ncnc3[nH]ccc23)cc1"
resulttype = "clint"
unitssymbol = "µL/min/mg"
valuereported = 2.0

[[record]]
compound = "CNC(=O)c1cccc(-c2cc3c(N[C@@H](c4ccc5c(c4)S(=O)(=O)CCC5)C(C)C)ncnc3[nH]2)c1"
resulttype = "clint"
unitssymbol = "µL/min/mg"
valuereported = 455.0


Query block: I would be grateful if you could share the reported clint for CC(C)[C@H](Nc1ncnc2[nH]c(-c3cnn(CC(N)=O)c3)cc12)c1ccc2c(c1)S(=O)(=O)CCC2 (single isomer, unassigned) [ASAP-0011428] .
Result block: 240.0

* * *

# targetEntity: 5-HT1B (h) (Homo sapiens, UniProt P28222)
# Construct: purchased Eurofins Cerep (SafetyScreen44), recognised from the panel format
# Sequence (P28222 whole entry): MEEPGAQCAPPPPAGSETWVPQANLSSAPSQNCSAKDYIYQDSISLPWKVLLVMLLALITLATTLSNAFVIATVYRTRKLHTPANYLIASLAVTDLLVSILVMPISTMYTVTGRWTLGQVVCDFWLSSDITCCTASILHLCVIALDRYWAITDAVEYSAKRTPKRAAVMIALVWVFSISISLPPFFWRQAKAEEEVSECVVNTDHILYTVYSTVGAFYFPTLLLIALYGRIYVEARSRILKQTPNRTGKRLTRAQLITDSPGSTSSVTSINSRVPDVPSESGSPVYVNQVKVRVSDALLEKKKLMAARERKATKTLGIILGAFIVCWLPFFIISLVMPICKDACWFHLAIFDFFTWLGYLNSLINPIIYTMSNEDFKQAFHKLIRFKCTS
# assayMethodText: In vitro CEREP profiling, 5-HT1B (h) (antagonist radioligand)
# Assay type: binding
# protocolConditions: test compound concentration 10 uM
resultType: perc_inhibition (% inhibition of the binding of a ligand specific for each target)

Worked set:
[[record]]
substancesmiles = "CC(C)[C@H](Nc1ncnc2[nH]ccc12)c1ccc2c(c1)S(=O)(=O)CCC2"
valuereported = "0%"

[[record]]
substancesmiles = "CC(C)[C@@H](Nc1ncnc2[nH]c(-c3cnn(C)c3C#N)cc12)c1ccc2c(n1)OCCO2"
valuereported = "4%"

[[record]]
substancesmiles = "CC(C)[C@H](Nc1ncnc2[nH]c(-c3cnn(C)c3C#N)cc12)c1ccc2c(n1)OCCO2"
valuereported = "-11%"

[[record]]
substancesmiles = "C[C@H](C(=O)O)[C@@H](NC(=O)c1ncnc2[nH]ccc12)c1ccc(Br)cc1"
valuereported = "1%"


Query block: Test system 5-HT1B (h) (Homo sapiens, UniProt P28222); read-out perc_inhibition (% inhibition of the binding of a ligand specific for each target); what value for CNCc1cc(-c2cc3c(N[C@@H](c4ccc5c(c4)S(=O)(=O)CCC5)C(C)C)ncnc3[nH]2)co1 ?
Result block: 45%

Query block: Test system 5-HT1B (h) (Homo sapiens, UniProt P28222); read-out perc_inhibition (% inhibition of the binding of a ligand specific for each target); what value for Cn1ncc(-c2cc3c(N[C@@H](c4ccc5c(n4)OCCO5)C(C)(C)C)ncnc3[nH]2)c1C#N ?
Result block: 18%

Query block: Test system 5-HT1B (h) (Homo sapiens, UniProt P28222); read-out perc_inhibition (% inhibition of the binding of a ligand specific for each target); what value for COc1ccc([C@H](Cc2nnn[nH]2)NC(=O)c2ncnc3[nH]ccc23)cc1 ?
Result block: -14%

* * *

# assayMethodText: Hepatic microsomal stability, MLM
# Type: in vitro ADME
# protocolConditions: In vitro mouse liver microsomal stability
resultType: t_half (min)
Give just the number in min; leave the unit off.

Worked set:
[[record]]
compound = "CC(C)[C@H](Nc1ncnc2[nH]c(-c3cnn(CC(=O)N(C)C)c3)cc12)c1ccc2c(c1)OCCO2 (single isomer, unassigned) [ASAP-0013837]"
valuereported = 36.8

[[record]]
compound = "CC(C)[C@@H](Nc1ncnc2[nH]c(-c3cncc(S(C)(=O)=O)c3)cc12)c1ccc2c(c1)S(=O)(=O)CCC2 [ASAP-0012320]"
valuereported = 6.1


Turning to the following compound.
Query block: I would be grateful if you could share the reported t_half for CC(C)[C@H](Nc1ncnc2[nH]cc(C(=O)NC3CC3)c12)c1ccc2c(c1)S(=O)(=O)CCC2 (single isomer, unassigned) [ASAP-0011247] .
Result block: 39.5
